- measurement_target: T1, human GIP receptor (human) (UniProt P48546)
- T1 sequence (looked up): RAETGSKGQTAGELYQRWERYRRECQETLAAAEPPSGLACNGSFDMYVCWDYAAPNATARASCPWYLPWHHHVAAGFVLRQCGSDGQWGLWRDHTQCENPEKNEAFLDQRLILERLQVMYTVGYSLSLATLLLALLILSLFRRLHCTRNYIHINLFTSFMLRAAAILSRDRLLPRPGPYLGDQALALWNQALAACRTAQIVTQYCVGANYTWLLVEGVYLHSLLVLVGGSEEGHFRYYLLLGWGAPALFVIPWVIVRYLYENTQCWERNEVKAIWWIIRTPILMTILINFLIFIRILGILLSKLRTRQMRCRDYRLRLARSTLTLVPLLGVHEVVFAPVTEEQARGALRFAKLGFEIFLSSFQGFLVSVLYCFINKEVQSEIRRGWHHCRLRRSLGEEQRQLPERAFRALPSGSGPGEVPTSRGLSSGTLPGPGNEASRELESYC
- experimental_protocol: cell-based or functional assay
Starred links: 1 amine or outer side, 2 acyl side, 3 side chain; linkers in the order of their positions; H or OH if unused. Non-standard residues stand in square brackets, D forms with d. Groups on a side chain read outwards from the residue. No end group written: not given here. *: point of attachment. C18 diacid = O=C(O)CCCCCCCCCCCCCCCCC(=O)*; γGlu = O=C(O)[C@H](CCC(=O)[*:2])N[*:1]; 4Pal = N[C@@H](Cc1ccncc1)C(=O)O; αMeL = CC(C)C[C@](C)(N)C(=O)O; Dab = NCC[C@H](N)C(=O)O; AEEA = NCCOCCOCC(=O)O; Aib = CC(C)(N)C(=O)O
Note to self: values exactly at 0.2 nM are rule met. So Relative cAMP EC50, nM (0.1% casein) at or above 0.2 nM is rule met, below is rule not met.

>>> class("YXQGTFTSDFSXXLDKKAQXAFIEWLLEGGPSSGAPPPSGS (Aib, Orn, αMeL; acylated K; C-terminal amide; synthetic construct; SITE 2: note = 2-Aminoisobutyric Acid; SITE 12: note = L-ornithine; SITE 13: note = alpha-methyl-leucine; SITE 17: note = Lysine is chemically modified through conjugation of the epsilon-amino group of the Lysine side chain with (2-[2-(2-Amino-ethoxy)-ethoxy]-acetyl)-(gamma-Glu)) [Example 168]")
"rule met"
>>> class("YXQGTXTSDYSILLDKKAQXAFIEYLEEGGPSSGAPPPEEG (synthetic construct; SITE 2: note = 2-Aminoisobutyric Acid; SITE 6: note = alpha-methyl-2-fluoro-L-phenylalanine; SITE 17: note = Lysine is chemically modified through conjugation of the epsilon-amino group of the Lysine side chain with (gamma-Glu)2-CO-(CH2)16-CO2H; SITE 20: note = 2-Aminoisobutyric) [Example 471]")
"rule not met"
>>> class("Y[Aib]QGTFTSD[4Pal]S[Dab][αMeL]LDKK([AEEA-γGlu-C18 diacid])AQ[Aib]AFIEYLIE[Aib]GESSGAPPPSGS-NH2 [Example 188]")
"rule not met"
>>> class("YXQGTFTSDFSXXLDKKAQXAFIEYLLEGGXSSGAPPPGGS (non-natural residues; lysine acylated with AEEA linker C18 diacid; C-amide; synthetic construct; SITE 2: note = 2-Aminoisobutyric Acid; SITE 12: note = L-ornithine; SITE 13: note = alpha-methyl-leucine; SITE 17: note = Lysine is chemically modified through conjugation of the epsilon-amino group of the Lysine side chain with (2-[2-(2-Amino-ethoxy)-ethoxy]-acetyl)-(gamma-Glu)) [Example 163]")
"rule met"
>>> class("YXQGTXTSDXSIXLDXKAQXXFIEYLLEGGPSSGEPPPEEG (synthetic construct; SITE 2: note = 2-Aminoisobutyric Acid; SITE 6: note = alpha-methyl-2-fluoro-L-phenylalanine; SITE 10: note = 3-(4-Pyridyl)-L-alanine; SITE 13: note = alpha-methyl-leucine; SITE 16: note = L-ornithine; SITE 17: note = Lysine is chemically modified through conjugation of the epsil) [Example 494]")
"rule not met"

Data provenance is patent US20240270821A1.
